All values here come from patent US9850282B2.

assay: in vitro; settings: artificial gastric juice with pepsin, pH 2, Pentadecapeptide content decrement (rel. %) in gastric juice at pH = 2.0, 2.0 hours, pH 2.0; 2.0 h; 37° C.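 Further: peptide salt at 10 mg/5 ml incubated in artificial gastric juice (HCl, NaCl, pepsin 1.0 g/l) at the listed pH and 37° C, peptide content tracked over time.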
No end group written: not given here.
quantity: remaining at 2 h (%)
Write it as a number; the unit % goes unstated.

Return the recorded remaining at 2 h value; entry: GEPPPGKPADDAGLV [Arg-BPC, bepecin L-arginine salt (1:2)] 6

* * *

settings: simulated gastric fluid, pH 2, Pentadecapeptide content decrement (rel. %) in gastric juice at pH = 2.0, 1.0 hours, pH 2.0; 1.0 h; 37° C.
No end group written: not given here.
quantity: remaining at 1 h (%)
Write it as a number; the unit % goes unstated.

Return the recorded remaining at 1 h value; entry: GEPPPGKPADDAGLV [BPC acetate] 8.2
